test.protocol: amyloid nucleation score (Sup35N fusion, yeast selection) (log enrichment); library NNK3; higher = more nucleation; inactive = no reads after selection;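 note: zero at mode of non-aggregating sequences after 7 days selection at 30°C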
measure: amyloid nucleation score

>>> value("TSLWRLL")
"inactive"
>>> value("SFFESCF")
"inactive"
>>> value("PLEGTALRHMVSMYYLSCWT")
"inactive"
>>> value("HLTLSAQRATSVVCERLQIS")
"inactive"
>>> value("FLVIPWDEEKCRLSDLFASN")
"inactive"
>>> value("FCKLQYTGQS")
"inactive"
>>> value("KDKACRNCHKGVMRVTWVK")
0.012
>>> value("ADCPCYVTGCWLSYWMLYI")
"inactive"
>>> value("WLVYPC")
"inactive"
>>> value("CTGCTFRYEKKDYNLGCLCK")
"inactive"
>>> value("GMQALIVFSSVVMRYAFVEG")
-1.18
>>> value("FTIVTQCEPTRLSCISDNIR")
"inactive"
>>> value("GGKHPGMCFHCEWLGYWFTS")
"inactive"
>>> value("CLYSSCALGIARDWVVLL")
"inactive"
>>> value("SSSNLLKPSYFCKGSRGASQ")
"inactive"
>>> value("NMRKLVCDMEIWMIFCAKSN")
0.505
>>> value("CYTIRLWARLNLCRGIKS")
-0.439

* * *

test.protocol: amyloid nucleation score (Sup35N fusion, yeast selection) (log enrichment); library NNK2; higher = more nucleation; inactive = no reads after selection
// reported amyloid nucleation score per item
measure: amyloid nucleation score

>>> value("GRCTGLLCLALVVIYQ")
0.358
>>> value("EYSYVVGMFREIVDTRTVFV")
0.107
>>> value("SGVWSSKSLYGKRGNSWIVV")
0.053
>>> value("LYCRTPFCTMTLELMKMTL")
0.128
>>> value("TATETFAF")
-0.28
>>> value("VALRFTIMDCRIYLYSLNVF")
0.125
>>> value("IVDGVYEFKC")
-0.779
>>> value("IDLAHGWSSSH")
0.66
>>> value("HGGSVWRRHSVFNAICISSS")
1.11
>>> value("NGTTWKYYSRMSVTCAGPSI")
-0.952
>>> value("FCLFFLASQIIVMGVTTYTG")
-0.313
>>> value("HLPGWSGWRSDFDIHTSGVG")
1.92
>>> value("LASTVNIEMVSVHRDWCVWM")
5.33
>>> value("HFRVMHSFQGQYKVIFK")
2.73
>>> value("YAPRCNPNRNLLNMT")
4.47
>>> value("STRKCFLMLILTRFGMCC")
0.603
>>> value("QGRGLRYQH")
0.166
>>> value("ICGVSFTGAIYARGGRLRIR")
0.145
>>> value("WRMREWKWVEYCRHSVKDAL")
1.54
>>> value("FWIDTYGGTNFKGCICIITG")
4.39
>>> value("IGWFKRRSCVEFGRRRMRIL")
-1.3
>>> value("ICKRIFGRYRYLSSEVDCVS")
-1.54
>>> value("CCQSFNVNRSTLNNLGRSYL")
0.848
>>> value("FSRMPLMDESFWFTCSICVM")
2.64
>>> value("DMLPLMSAVPHSFSMLVWGE")
-0.109
>>> value("CPMPITRSAVFACTITCSVA")
5.99
>>> value("KWSIRVGPQWV")
3.43
>>> value("RIITGPGWTVAGSPVRGVRG")
1.68
>>> value("CKTHPKKNSGFWRKLKGCLG")
3.17
>>> value("ELLIHDEYDILMCN")
0.136
>>> value("CLRILGDISSFRGMRHTTLH")
0.042
>>> value("CKRSTH")
-0.461
